system: DERL-7 (IL-2 2.5 ng/mL); assay: percent inhibition of viability; higher = more inhibition; conditions: 72 h; 2500 nM;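 further: normalised to DMSO-only wells as negative and benzethonium chloride as positive control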
Kindly apply the following: Satisfied if percent inhibition of viability is less than 10%, Not satisfied in every other case.

# TODO verify percent inhibition of viability < 10% strictly for this compound: CC(C)(C)c1nc(-c2cccc(NS(=O)(=O)c3c(F)cccc3F)c2F)c(-c2ccnc(N)n2)s1 [Dabrafenib] (max concentration tested 2500 nM)
Not satisfied

Say whether its percent inhibition of viability is strictly beneath 10%. Entry: CC(=O)OC[C@H]1O[C@@H]([S-])[C@H](OC(C)=O)[C@@H](OC(C)=O)[C@@H]1OC(C)=O.CCP(CC)CC.[Au+] [Auranofin] (max concentration tested 2500 nM)
Not satisfied

Quick check: percent inhibition of viability of O=C(Nc1cc(Cl)cc2c1[nH]c1cnccc12)c1cccnc1 [PS-1145] (max concentration tested 25000 nM) under 10%?
Satisfied

Item C[C@@H]1CN(CC(=O)Nc2ccc3c(c2)Cc2cccc(-c4cc(=O)cc(N5CCOCC5)o4)c2S3)C[C@H](C)O1 (max concentration tested 25000 nM) : percent inhibition of viability beneath 10%, strictly?
Not satisfied

Identify whether the compound Cc1cc([C@@H](C)Nc2ccccc2C(=O)O)c2nc(N3CCOCC3)cc(=O)n2c1 [AZD-6482] (max concentration tested 2500 nM) records percent inhibition of viability below 10%.
Not satisfied
